system: SKBR3 cells express WT PI3Ka; assay: In vitro cell proliferation, SKBR3 cells (CellTiter-Glo); assay type: cell-based; details: Homo sapiens, SK-BR-3, 72 h, inhibition of proliferation
pEC50: −log10 of the molar value.
Please provide measured pEC50 for the entries that follow.

{"COMPOUND": "Cc1cc(C(C)Nc2ccccc2C(=O)O)c2cc(N3C[C@@H]4[C@@H](C#N)[C@@H]4C3)n(C)c(=O)c2c1 (stereo partly drawn) [Example 70]", "pEC50": "< 4.82"}

Provide each entry's pEC50 from the list below.
1. Cc1cc(C(C)Nc2ccccc2C(=O)O)c2cc(N3CC4CCC(C4)C3)n(C)c(=O)c2c1 (single isomer, unassigned) [Example 10]
2. C[C@@H](Nc1cccc(F)c1C(=O)O)c1cc(F)cc2c(=O)n(C)c(-c3ccc(OC4CC4)nc3)cc12 [Example 379]

["4.82 to 5.70", "< 4.82"]

----------
Please provide measured pEC50 for the entries that follow.
test system: T47D cells expressing mutant PI3Ka (H1047R); experiment: In vitro cell proliferation, T47D cells (CellTiter-Glo); format: cell-based; settings: inhibition of proliferation, 72 hours, read-out: Avg T-47D EC50
pEC50: −log10 of the molar value.

Solved cases (2 shown):
{"COMPOUND": "COc1cccc(C#Cc2cc3c(C(C)Nc4ccccc4C(=O)O)cc(C)cc3c(=O)n2C)c1 (single isomer, unassigned) [Example 126]", "TESTED TARGET": "T47D cells expressing mutant PI3Ka (H1047R)", "pEC50": "6.30 to 9.00"}
{"COMPOUND": "C[C@@H](Nc1ccccc1C(=O)O)c1cc(F)cc2c(=O)n(C)c(C3C[C@@H]3C(F)F)cc12 (single isomer, unassigned)", "TESTED TARGET": "T47D cells expressing mutant PI3Ka (H1047R)", "pEC50": "6.30 to 9.00"}

Provide each entry's pEC50 from the list below.
1. Cc1cc([C@@H](C)Nc2ccccc2C(=O)O)c2cc(N3CCN(c4cccc(C#N)c4)CC3)n(C)c(=O)c2c1
2. Cc1cc(C(C)Nc2ccccc2C(=O)O)c2cc(N3CCN(C)CC3)n(C)c(=O)c2c1 (single isomer, unassigned) [Example 13]
3. Cc1cc(C(C)Nc2ccccc2C(=O)O)c2cc(N3CCC4(CCN(CC(F)(F)F)C4)CC3)n(C)c(=O)c2c1 (single isomer, unassigned) [Example 96]
4. Cc1cc(C(C)Nc2ccccc2C(=O)O)c2cc(N3CCN4C(=O)CCC4C3)n(C)c(=O)c2c1 (single isomer, unassigned) [Example 123]
5. Cc1cc([C@@H](C)Nc2ccccc2C(=O)O)c2cc(C3C[C@H]3C(C)C)n(C)c(=O)c2c1 (single isomer, unassigned)
6. Cc1cc([C@@H](C)Nc2ccccc2C(=O)O)c2cc(N3CCn4c(nnc4C(F)(F)F)C3)n(C)c(=O)c2c1

["6.30 to 9.00", "5.70 to 6.30", "6.30 to 9.00", "< 4.82", "6.30 to 9.00", "4.82 to 5.70"]

Provide each entry's pEC50 from the list below.
1. Cc1cc(C(C)Nc2ccccc2C(=O)O)c2cc(N3Cc4ccncc4C3)n(C)c(=O)c2c1 (single isomer, unassigned) [Example 107]
2. CC(=O)N1CCC2(CC1)CCN(c1cc3c(C(C)Nc4ccccc4C(=O)O)cc(C)cc3c(=O)n1C)CC2 (single isomer, unassigned) [Example 135]
3. Cc1cc(C(C)Nc2ccccc2C(=O)O)c2cc(N3CC(Cl)C3)n(C)c(=O)c2c1 (single isomer, unassigned) [Example 78]

1: 6.30 to 9.00; 2: 4.82 to 5.70; 3: 4.82 to 5.70

----------
Please provide measured EC50 for the entries that follow.
tested on: T47D cells expressing mutant PI3Ka (H1047R); assay: In vitro cell proliferation, T47D cells (CellTiter-Glo); format: cell-based; settings: inhibition of proliferation, 72 hours, read-out: Avg T-47D EC50

Solved cases (5 shown):
{"COMPOUND": "COC1(C)CCN(c2cc3c(C(C)Nc4ccccc4C(=O)O)cc(C)cc3c(=O)n2C)CC1 (single isomer, unassigned) [Example 153]", "TESTED TARGET": "T47D cells expressing mutant PI3Ka (H1047R)", "REPORTED PROPERTY": "EC50", "REPORTED VALUE": "1 to 500 nM"}
{"COMPOUND": "CCOc1ccc(-c2cc3c(C(C)Nc4ccccc4C(=O)O)cc(C)cc3c(=O)n2C)cn1 (single isomer, unassigned) [Example 133]", "TESTED TARGET": "T47D cells expressing mutant PI3Ka (H1047R)", "REPORTED PROPERTY": "EC50", "REPORTED VALUE": "2000 to 15000 nM"}
{"COMPOUND": "COCCC(=O)N1CCN(c2cc3c(C(C)Nc4ccccc4C(=O)O)cc(C)cc3c(=O)n2C)CC1 (single isomer, unassigned) [Example 112]", "TESTED TARGET": "T47D cells expressing mutant PI3Ka (H1047R)", "REPORTED PROPERTY": "EC50", "REPORTED VALUE": "2000 to 15000 nM"}
{"COMPOUND": "Cc1cc(C(C)Nc2ccccc2C(=O)O)c2cc(N3CC(c4ccccc4)C3)n(C)c(=O)c2c1 (single isomer, unassigned) [Example 77]", "TESTED TARGET": "T47D cells expressing mutant PI3Ka (H1047R)", "REPORTED PROPERTY": "EC50", "REPORTED VALUE": "500 to 2000 nM"}
{"COMPOUND": "Cc1cc(C(C)Nc2ccc(Cl)nc2C(=O)O)c2cc(C3=CCC(C)(C)CC3)n(C)c(=O)c2c1 (single isomer, unassigned) [Example 22]", "TESTED TARGET": "T47D cells expressing mutant PI3Ka (H1047R)", "REPORTED PROPERTY": "EC50", "REPORTED VALUE": "2000 to 15000 nM"}

We next turn to a different compound, shown below.
Need EC50, item Cc1cc(C(C)Nc2ccccc2C(=O)O)c2cc(N3CCC4(CCOCC4)CC3)n(C)c(=O)c2c1 (single isomer, unassigned) [Example 166] 2000 to 15000 nM

----------
tested on: T47D cells expressing mutant PI3Ka (H1047R); test: In vitro cell proliferation, T47D cells (CellTiter-Glo); format: cell-based; details: inhibition of proliferation, 72 hours, read-out: Avg T-47D EC50
Please provide measured EC50 for the entries that follow.

Solved cases (3 shown):
{"COMPOUND": "CC(Nc1ccccc1C(=O)O)c1cc(F)cc2c(=O)n(C)c(-c3cnc(-c4ccc(F)cc4F)c(F)c3)cc12 (centres unmarked) [Example 560]", "TESTED TARGET": "T47D cells expressing mutant PI3Ka (H1047R)", "EC50": "1 to 500 nM"}
{"COMPOUND": "Cc1cc(C(C)Nc2ccccc2C(=O)O)c2cc(N3CCC4(CCCCO4)CC3)n(C)c(=O)c2c1 (single isomer, unassigned) [Example 169]", "TESTED TARGET": "T47D cells expressing mutant PI3Ka (H1047R)", "EC50": "> 15000 nM"}
{"COMPOUND": "Cc1cc(C(C)Nc2ccccc2C(=O)O)c2cc(N3CCC(C)(C)CC3)n(C)c(=O)c2c1 (single isomer, unassigned) [Example 2]", "TESTED TARGET": "T47D cells expressing mutant PI3Ka (H1047R)", "EC50": "2000 to 15000 nM"}

Provide each entry's EC50 from the list below.
1. Cc1cc([C@@H](C)Nc2ccccc2C(=O)O)c2cc(N3CCN(C(C)C(F)(F)F)CC3)n(C)c(=O)c2c1 (single isomer, unassigned) [Example 279]
2. COC1(C)CN(c2cc3c(C(C)Nc4ccccc4C(=O)O)cc(C)cc3c(=O)n2C)C1 (single isomer, unassigned) [Example 213]
3. Cc1cc([C@@H](C)Nc2ccccc2C(=O)O)c2cc(N3CCC4(CC3)CN(CC(F)(F)F)C4)n(C)c(=O)c2c1 [Example 219]
4. Cc1cc(C(C)Nc2ccccc2C(=O)O)c2cc(N3CC4(CC(C(F)(F)F)C4)C3)n(C)c(=O)c2c1 (single isomer, unassigned) [Example 82]
5. Cc1cc(C(C)Nc2ccccc2C(=O)O)c2cc(C3CCC(C)(C)CC3)n(C)c(=O)c2c1 (single isomer, unassigned) [Example 52]
6. Cc1cc([C@@H](C)Nc2ccccc2C(=O)O)c2cc(N3CCN(CCC(F)(F)F)CC3)n(C)c(=O)c2c1 [Example 264]
7. Cc1cc(C(C)Nc2ccccc2C(=O)O)c2cc(-c3ccc(N4CCOCC4)nc3)n(C)c(=O)c2c1 (single isomer, unassigned) [Example 486]

1: 1 to 500 nM; 2: 500 to 2000 nM; 3: 1 to 500 nM; 4: 500 to 2000 nM; 5: 1 to 500 nM; 6: 1 to 500 nM; 7: 2000 to 15000 nM

Provide each entry's EC50 from the list below.
1. Cc1cc(C(C)Nc2ccccc2C(=O)O)c2cc(N3CC4(C3)CC(F)(F)C4)n(C)c(=O)c2c1 (single isomer, unassigned) [Example 80]
2. CC(Nc1ccccc1C(=O)O)c1cc(F)cc2c(=O)n(C)c(-c3ccc(OC4CC4)nc3)c(F)c12 (centres unmarked) [Example 561]
3. Cc1cc([C@@H](C)Nc2ccccc2C(=O)O)c2cc(N3CCN(c4cn(C)nn4)CC3)n(C)c(=O)c2c1 [Example 254]

1. > 15000 nM
2. 1 to 500 nM
3. 2000 to 15000 nM

Provide each entry's EC50 from the list below.
1. Cc1cc([C@@H](C)Nc2ccccc2C(=O)O)c2cc(N3CC4CC3CN4CC(F)(F)F)n(C)c(=O)c2c1 (single isomer, unassigned) [Example 211]
2. Cc1cc(C(C)Nc2ccccc2C(=O)O)c2cc(N3CC4CCCC(C4)C3)n(C)c(=O)c2c1 (centres unmarked) [Example 116]
3. Cc1cc(C(C)Nc2ccccc2C(=O)O)c2cc(N3Cc4ccc(F)c(F)c4C3)n(C)c(=O)c2c1 (single isomer, unassigned) [Example 177]
4. Cc1cc(C(C)Nc2ccccc2C(=O)O)c2cc(C3CCC(C)(C)CC3)n(C)c(=O)c2c1 (single isomer, unassigned) [Example 51]

["500 to 2000 nM", "500 to 2000 nM", "2000 to 15000 nM", "2000 to 15000 nM"]

src = patent US20260078103A1
